Quick list: pIC50 per entry.
Molecular target: EGF receptor tyrosine kinase (Homo sapiens, UniProt P00533)
Construct: Receptor tyrosine kinase was obtained in partially purified form from A-431 cells; endogenous in cells; host or cells: A-431 cells (human vulval carcinoma); solubilised membrane fraction
Sequence (P00533 25-1210): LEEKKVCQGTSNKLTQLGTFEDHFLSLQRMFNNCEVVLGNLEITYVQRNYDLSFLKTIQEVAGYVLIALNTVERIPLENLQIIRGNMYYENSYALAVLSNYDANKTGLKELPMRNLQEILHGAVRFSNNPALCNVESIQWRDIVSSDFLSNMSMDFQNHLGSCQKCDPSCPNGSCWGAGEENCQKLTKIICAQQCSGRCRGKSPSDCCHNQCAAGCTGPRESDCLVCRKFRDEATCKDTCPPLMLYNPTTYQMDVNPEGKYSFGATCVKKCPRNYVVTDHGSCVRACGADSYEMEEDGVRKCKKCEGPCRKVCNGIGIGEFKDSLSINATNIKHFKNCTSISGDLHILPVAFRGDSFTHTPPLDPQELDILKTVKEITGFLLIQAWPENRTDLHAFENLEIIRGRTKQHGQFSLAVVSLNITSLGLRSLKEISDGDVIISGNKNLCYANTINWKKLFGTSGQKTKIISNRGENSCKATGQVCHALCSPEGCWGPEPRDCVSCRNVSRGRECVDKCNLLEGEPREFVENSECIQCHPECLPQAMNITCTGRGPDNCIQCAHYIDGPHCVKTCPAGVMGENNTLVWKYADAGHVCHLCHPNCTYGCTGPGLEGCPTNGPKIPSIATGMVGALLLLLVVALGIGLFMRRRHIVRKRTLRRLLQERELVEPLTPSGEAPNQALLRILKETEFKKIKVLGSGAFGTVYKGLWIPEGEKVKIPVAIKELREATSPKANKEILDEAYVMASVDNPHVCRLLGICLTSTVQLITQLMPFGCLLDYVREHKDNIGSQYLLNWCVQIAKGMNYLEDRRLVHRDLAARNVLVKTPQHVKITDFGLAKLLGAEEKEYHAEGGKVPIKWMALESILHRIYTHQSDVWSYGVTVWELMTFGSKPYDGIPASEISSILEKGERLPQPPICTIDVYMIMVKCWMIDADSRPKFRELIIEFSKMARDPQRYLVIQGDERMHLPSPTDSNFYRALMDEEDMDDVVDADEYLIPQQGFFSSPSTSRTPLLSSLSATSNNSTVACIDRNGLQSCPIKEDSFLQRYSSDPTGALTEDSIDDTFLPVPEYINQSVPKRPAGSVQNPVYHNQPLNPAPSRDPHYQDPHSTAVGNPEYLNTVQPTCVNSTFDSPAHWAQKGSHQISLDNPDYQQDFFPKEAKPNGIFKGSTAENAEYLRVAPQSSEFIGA
Test: Test (a): in vitro assay of inhibition of the enzyme EGF receptor tyrosine kinase (32P peptide phosphorylation)
Format: biochemical
Details: values stated as approximate; EGF receptor tyrosine kinase from A-431 cells
pIC50: −log10 of the molar value.
reported_property: pIC50

- COc1cc2ncnc(Nc3ccc(F)cc3F)c2cc1OCCCN1CCOCC1: 6.17
- CCN(CC)CCOc1cc2c(Nc3ccc(F)c(Cl)c3)ncnc2cc1OC: 7.05
- COc1cc2ncnc(Nc3ccc(F)c(F)c3)c2cc1OCCCN(C)C: 6.57
- CCN(CC)CCCOc1cc2c(Nc3ccc(F)c(F)c3)ncnc2cc1OC: 6.17
- COc1cc2ncnc(Nc3ccc(F)c(Cl)c3)c2cc1OCC(O)CN1CCOCC1 (centres unmarked): 8.00

---

Target: EGF receptor tyrosine kinase (Homo sapiens)
Construct: Receptor tyrosine kinase was obtained in partially purified form from A-431 cells; endogenous in cells; host or cells: A-431 cells (human vulval carcinoma); solubilised membrane fraction
Test: Test (a): in vitro assay of inhibition of the enzyme EGF receptor tyrosine kinase (32P peptide phosphorylation)
Assay type: biochemical
Details: values stated as approximate; EGF receptor tyrosine kinase from A-431 cells
reported_property: IC50 (µM)

* COc1cc2ncnc(Nc3ccc(F)c(Cl)c3)c2cc1OCCN1CCOCC1 [Example 3] | 0.01
* COc1cc2ncnc(Nc3ccc(F)c(Cl)c3)c2cc1OCCN(C)C [Example 6] | 0.01
* COCCN(CCOC)CCOc1cc2c(Nc3ccc(F)c(Cl)c3)ncnc2cc1OC [Example 5] | 0.06
* COc1cc2ncnc(Nc3ccc(F)c(F)c3)c2cc1OCCCN1CCOCC1 [Example 19] | 0.52
* COc1cc2ncnc(Nc3ccc(F)cc3F)c2cc1OCCCN(C)C [Example 8] | 0.48

---

System: human naso-pharyngeal cancer cell line KB
Assay: cells
Assay type: cell-based
Conditions: 72 h, values stated as approximate, EGF 10 ng/ml, 3 days, read-out: Test (b) IC50
reported_property: IC50 (nM)

• COCCN(CCOC)CCOc1cc2c(Nc3ccc(F)c(Cl)c3)ncnc2cc1OC = 200
• COc1cc2ncnc(Nc3ccc(F)cc3F)c2cc1OCCCN1CCOCC1 = 300
• COc1cc2ncnc(Nc3ccc(F)c(Cl)c3)c2cc1OCCN1CCOCC1 = 400
• COc1cc2ncnc(Nc3ccc(F)c(Cl)c3)c2cc1OCCN(C)C = 100
• CCN(CC)CCCOc1cc2c(Nc3ccc(F)c(F)c3)ncnc2cc1OC = 550
• COc1cc2ncnc(Nc3ccc(F)c(Cl)c3)c2cc1OCCN1CCN(C)CC1 = 100
• COc1cc2ncnc(Nc3ccc(F)cc3F)c2cc1OCCCN(C)C = 900
• COc1cc2ncnc(Nc3ccc(F)c(F)c3)c2cc1OCCCN(C)C = 390
• COc1cc2ncnc(Nc3ccc(F)c(F)c3)c2cc1OCCCN1CCOCC1 = 450
• CCN(CC)CCOc1cc2c(Nc3ccc(F)c(Cl)c3)ncnc2cc1OC = 300
• COc1cc2ncnc(Nc3ccc(F)c(Cl)c3)c2cc1OCC(O)CN1CCOCC1 (centres unmarked) = 100
